biological target: TRPV1 (Homo sapiens)
Sequence (Q8NER1 whole entry, species assumed): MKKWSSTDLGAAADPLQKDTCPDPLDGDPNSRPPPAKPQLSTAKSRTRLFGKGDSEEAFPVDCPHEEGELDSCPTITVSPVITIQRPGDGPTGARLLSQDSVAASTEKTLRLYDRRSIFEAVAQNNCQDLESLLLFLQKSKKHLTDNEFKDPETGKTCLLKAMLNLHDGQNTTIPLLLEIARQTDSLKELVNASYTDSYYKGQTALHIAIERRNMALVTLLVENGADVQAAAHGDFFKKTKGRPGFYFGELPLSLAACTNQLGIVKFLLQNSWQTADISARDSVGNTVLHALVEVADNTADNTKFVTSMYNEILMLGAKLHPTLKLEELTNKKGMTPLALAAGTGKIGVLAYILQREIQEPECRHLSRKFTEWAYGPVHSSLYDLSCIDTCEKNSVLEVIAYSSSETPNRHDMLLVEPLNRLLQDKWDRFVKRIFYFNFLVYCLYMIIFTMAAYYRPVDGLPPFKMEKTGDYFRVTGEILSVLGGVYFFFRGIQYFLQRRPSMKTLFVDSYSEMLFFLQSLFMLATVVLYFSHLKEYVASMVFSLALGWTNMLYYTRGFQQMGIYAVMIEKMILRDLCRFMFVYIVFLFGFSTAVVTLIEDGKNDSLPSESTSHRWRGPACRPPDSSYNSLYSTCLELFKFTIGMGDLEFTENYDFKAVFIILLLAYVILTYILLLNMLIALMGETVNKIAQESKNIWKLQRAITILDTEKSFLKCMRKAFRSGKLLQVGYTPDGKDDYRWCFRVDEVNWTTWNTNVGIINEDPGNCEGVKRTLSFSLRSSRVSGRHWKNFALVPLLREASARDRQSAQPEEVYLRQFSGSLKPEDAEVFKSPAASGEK
pIC50: −log10 of the molar value.
Measure: pIC50

Which value of pIC50 has been reported for Oc1cc2c(cc1O)CN(C(=S)NCCc1ccc(Cl)cc1)CCC2 [capsazepine] in the records? ~6.30
